For each entry below, report its absolute recovery value.
# METHOD_NOTES: absolute recovery over vacuum-assisted evaporative concentration; higher = better recovery
# CONDITION_DESCRIPTION: wastewater effluent; enrichment method: VEC
The reply should be a number in %, with the unit left off.

IN: Read the entry "O=C([O-])C(F)(F)C(F)(F)C(F)(F)C(F)(F)C(F)(F)F" and write its reported absolute recovery.
OUT: 95.2

IN: Read the entry O=C1C(Cl)C(CCl)CN1c1cccc(C(F)(F)F)c1 (stereo not drawn) and write its reported absolute recovery.
OUT: 92

IN: Read the entry CC(C(=O)[O-])c1cccc(C(=O)c2ccccc2)c1 (stereo not drawn) and write its reported absolute recovery.
OUT: 110

IN: Read the entry O=C([O-])C(c1ccccc1)C1CCCC[NH2+]1 (stereo not drawn) and write its reported absolute recovery.
OUT: 110

IN: Read the entry Cc1cc(C)cc(OCC2CNC(=O)O2)c1 (stereo not drawn) and write its reported absolute recovery.
OUT: 95.8

IN: Read the entry [NH3+]C(Cc1cc(I)c(O)c(I)c1)C(=O)[O-] (stereo not drawn) and write its reported absolute recovery.
OUT: 90.5

IN: Read the entry COc1ccc(CCC(=O)c2c(O)cc(OC3OC(CO)C(O)C(O)C3OC3OC(C)C(O)C(O)C3O)cc2O)cc1O (stereo not drawn) [Neohesperidin-dihydrochalcon] and write its reported absolute recovery.
OUT: 51.7

IN: Read the entry Cc1cccc(C)c1OCC(C)[NH3+] (stereo not drawn) and write its reported absolute recovery.
OUT: 97.3

IN: Read the entry C[NH2+]CC(c1ccc(O)cc1)C1(O)CCCCC1 (stereo not drawn) and write its reported absolute recovery.
OUT: 106

IN: Read the entry "CCCCOc1ccc(CC(=O)NO)cc1" and write its reported absolute recovery.
OUT: 93.4

IN: Read the entry CC([NH2+]C(C)(C)C)C(=O)c1cccc(Cl)c1 (stereo not drawn) and write its reported absolute recovery.
OUT: 51.1

IN: Read the entry COc1ccc(C(C[N+](C)(C)[O-])C2(O)CCCCC2)cc1 (stereo not drawn) [Venlafaxine-N-Oxide] and write its reported absolute recovery.
OUT: 105

IN: Read the entry CN1C(=O)CC(C)(c2ccccc2)C1=O (stereo not drawn) [Methsuximide] and write its reported absolute recovery.
OUT: 99

IN: Read the entry "Cc1cc([N-]S(=O)(=O)c2ccc(N)cc2)no1" and write its reported absolute recovery.
OUT: 102

IN: Read the entry "O=C1NC(=O)C(c2ccccc2)(c2ccccc2)N1" and write its reported absolute recovery.
OUT: 98.4

IN: Read the entry "CN1C(=O)CN=C(c2ccccc2)c2cc(Cl)ccc21" and write its reported absolute recovery.
OUT: 105

IN: Read the entry "CCNc1nc(Cl)nc(NC(C)(C)C)n1" and write its reported absolute recovery.
OUT: 95

IN: Read the entry "CC(C)N(C(=O)CS(=O)(=O)[O-])c1ccccc1" and write its reported absolute recovery.
OUT: 108

IN: Read the entry CC(=O)OCC(=O)C1(O)C(C)CC2C3CCC4=CC(=O)C=CC4(C)C3(F)C(O)CC21C (stereo not drawn) [Betamethasone 21-acetate C] and write its reported absolute recovery.
OUT: 92.7

IN: Read the entry CC1(C(=O)[O-])CCC2(C)CCC3(C)C(=CC(=O)C4C5(C)CCC(O)C(C)(C)C5CCC43C)C2C1 (stereo not drawn) and write its reported absolute recovery.
OUT: 88.9

IN: Read the entry CCCCC(C#N)(Cn1cncn1)c1ccc(Cl)cc1 (stereo not drawn) and write its reported absolute recovery.
OUT: 109

IN: Read the entry COCC(C)N(C(=O)C(=O)[O-])c1c(C)csc1C (stereo not drawn) and write its reported absolute recovery.
OUT: 105

IN: Read the entry "CCCCOc1ccc(OCCC[NH+]2CCOCC2)cc1" and write its reported absolute recovery.
OUT: 105

IN: Read the entry "O=C([O-])c1cccc(Oc2ccccc2)c1" and write its reported absolute recovery.
OUT: 98.8

IN: Read the entry C=CCC1C=C(C)CC(C)CC(OC)C2OC(O)(C(=O)C(=O)N3CCCCC3C(=O)OC(C(C)=CC3CCC(O)C(OC)C3)C(C)C(O)CC1=O)C(C)CC2OC (stereo not drawn) and write its reported absolute recovery.
OUT: 56.2

IN: Read the entry "O=C([O-])c1cn(C2CC2)c2cc(N3CC[NH2+]CC3)c(F)cc2c1=O" and write its reported absolute recovery.
OUT: 105

IN: Read the entry CCCC[NH+]1CCCCC1C(=O)Nc1c(C)cccc1C (stereo not drawn) and write its reported absolute recovery.
OUT: 104

IN: Read the entry "CCOC(=O)C1=NOC(c2ccccc2)(c2ccccc2)C1" and write its reported absolute recovery.
OUT: 26.4

IN: Read the entry COc1cc2[nH+]c(N(C)CCCNC(=O)C3CCCO3)nc(N)c2cc1OC (stereo not drawn) and write its reported absolute recovery.
OUT: 99.1

IN: Read the entry CCc1cccc(C)c1N(C(=O)CCl)C(C)COC (stereo not drawn) and write its reported absolute recovery.
OUT: 93.1

IN: Read the entry CC1(C)SC2C([NH3+])C(=O)N2C1C(=O)[O-] (stereo not drawn) and write its reported absolute recovery.
OUT: 90.3

IN: Read the entry CC(C)[NH2+]CC(O)COc1ccc(CC(N)=O)cc1 (stereo not drawn) and write its reported absolute recovery.
OUT: 107

IN: Read the entry "CN(C)c1nc(=O)n(C2CCCCC2)c(=O)n1C" and write its reported absolute recovery.
OUT: 106

IN: Read the entry "Cn1c(=O)c2c(ncn2C)n(C)c1=O" and write its reported absolute recovery.
OUT: 99.7

IN: Read the entry "COC(=O)c1ccc(C(F)(F)F)nc1S(=O)(=O)[N-]C(=O)Nc1nc(OC)cc(OC)n1" and write its reported absolute recovery.
OUT: 65.8

IN: Read the entry "C[Si](Cn1cncn1)(c1ccc(F)cc1)c1ccc(F)cc1" and write its reported absolute recovery.
OUT: 114

IN: Read the entry "CC1=NNC(=O)N(N=Cc2cccnc2)C1" and write its reported absolute recovery.
OUT: 107

IN: Read the entry "Nc1nnc(-c2cccc(Cl)c2Cl)c(N)n1" and write its reported absolute recovery.
OUT: 104
